The measured values listed here are drawn from patent US12606543B2.

# ASSAY: Liver microsomes stability, rat
# Assay type: in vitro ADME
# CONDITION_DETAILS: male; rat liver microsomes, 2 μM compound, 0.5 mg/mL microsomes
Hi there, I'd appreciate the recorded half-life at 2 μM for every entry that follows.
One number for each entry, in min.

Consider the molecule COCCN1CCC[C@@H]1Cc1c[nH]c2ccc(OC)cc12 [(R) I-98] . State its measured half-life at 2 μM.
10

---
Specify measured half-life at 2 μM for [2H]C([2H])(c1c[nH]c2ccc(OCCCCN3C(=O)c4ccccc4C3=O)cc12)[C@H]1CCCN1C([2H])([2H])[2H] [(R) I-244] .
6.89
